# Target desc: TRPML3 (Homo sapiens, UniProt Q8TDD5)
# Construct: expressed in transfected cells
# Sequence (Q8TDD5 whole entry): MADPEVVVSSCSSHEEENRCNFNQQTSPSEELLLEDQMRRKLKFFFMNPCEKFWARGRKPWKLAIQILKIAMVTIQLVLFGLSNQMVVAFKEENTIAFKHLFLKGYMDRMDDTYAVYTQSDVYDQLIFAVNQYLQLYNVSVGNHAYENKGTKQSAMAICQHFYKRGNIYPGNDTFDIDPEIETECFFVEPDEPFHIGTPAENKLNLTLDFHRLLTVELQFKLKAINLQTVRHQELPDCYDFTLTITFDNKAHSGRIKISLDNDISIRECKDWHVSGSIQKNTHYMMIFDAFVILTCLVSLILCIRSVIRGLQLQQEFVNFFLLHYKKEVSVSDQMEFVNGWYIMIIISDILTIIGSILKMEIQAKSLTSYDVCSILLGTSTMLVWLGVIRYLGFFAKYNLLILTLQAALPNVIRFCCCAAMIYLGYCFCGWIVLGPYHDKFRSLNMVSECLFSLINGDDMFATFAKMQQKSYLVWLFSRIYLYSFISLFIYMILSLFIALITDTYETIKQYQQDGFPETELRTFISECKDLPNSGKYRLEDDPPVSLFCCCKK
# Test details: Fluorescent TRPML3 assay (as for TRPML1)
# Assay type: cell-based
# Stated conditions: Table 3, compounds 201-283
pEC50: −log10 of the molar value.
Listing: pEC50 of selected compounds

q: For C[C@H]1CN(C(=O)C(C)(C)C)CCN1c1nccc2c1c(N1CCC1)cn2-c1cccc(F)c1 , what is its reported pEC50?
a: > 7.00

q: For CC(C)CC(=O)N1CCN(c2ncnc3c2c(N2CCC2)cn3-c2cc(C#N)ccn2)C[C@H]1C , what is its reported pEC50?
a: > 7.00

q: For C[C@@H]1CN(c2ncnc3c2c(C2CC2)cn3-c2cccc(F)c2)[C@@H](C)CN1C(=O)C(C)(C)C , what is its reported pEC50?
a: 5.70 to 6.30

q: For COC(C)(C)C(=O)N1C[C@H](C)N(c2ncnc3c2c(N2CCC2)cn3-c2cccc(F)c2)C[C@H]1C , what is its reported pEC50?
a: 6.30 to 7.00

q: For CC(C)C(=O)N1C[C@H](C)N(c2ncnc3c2c(C2CCC2)cn3-c2cccc(F)c2)C[C@H]1C , what is its reported pEC50?
a: < 5.70

q: For COC1(C(=O)N2C[C@H](C)N(c3ncnc4c3c(-c3ccccc3F)cn4-c3cc(C#N)ccn3)C[C@H]2C)CC1 , what is its reported pEC50?
a: > 7.00

q: For C[C@@H]1CN(c2ncnc3c2c(C(F)(F)F)cn3-c2cc(C#N)ccn2)[C@@H](C)CN1C(=O)CC(C)(C)C , what is its reported pEC50?
a: > 7.00

q: For C[C@@H]1CN(c2ncnc3c2c(N2CCC2)cn3-c2cccc(Cl)c2)[C@@H](C)CN1C(=O)C(C)(C)C , what is its reported pEC50?
a: > 7.00

q: For C[C@@H]1CN(c2ncnc3c2c(C2CCC2)cn3-c2cccc(C(F)(F)F)c2)[C@@H](C)CN1C(=O)C(C)(C)C , what is its reported pEC50?
a: 5.70 to 6.30

q: For C[C@@H]1CN(c2ncnc3c2c(N2CCC2)cn3-c2cccc(F)c2)[C@@H](C)CN1C(=O)C(C)(C)C , what is its reported pEC50?
a: > 7.00

q: For C[C@H]1CN(C(=O)[C@@H](F)C(C)(C)C)CCN1c1ncnc2c1c(C1CC1)cn2-c1cc(C#N)ccn1 (single isomer, unassigned) , what is its reported pEC50?
a: > 7.00

q: For C[C@@H]1CN(c2ncnc3c2c(C(F)(F)F)cn3-c2cc(F)cc(F)c2)[C@@H](C)CN1C(=O)C(C)(C)C , what is its reported pEC50?
a: 6.30 to 7.00

q: For COC(C)(C)C(=O)N1CCN(c2ncnc3c2c(C2CC2)cn3-c2cc(C#N)ccn2)C[C@H]1C , what is its reported pEC50?
a: > 7.00

q: For C[C@H]1CN(C(=O)C(C)(C)C)CCN1c1nccc2c1c(C1CC1)cn2-c1cccc(F)c1 , what is its reported pEC50?
a: > 7.00

q: For COC(C)(C)C(=O)N1CCN(c2ncnc3c2c(C2CC2)cn3-c2cc(C#N)ccn2)[C@@H](C)C1 , what is its reported pEC50?
a: > 7.00

----------
# Target desc: human TRPML1 (Homo sapiens)
# Sequence (Q9GZU1 whole entry L15A/L16A/L577A/L578A, form open): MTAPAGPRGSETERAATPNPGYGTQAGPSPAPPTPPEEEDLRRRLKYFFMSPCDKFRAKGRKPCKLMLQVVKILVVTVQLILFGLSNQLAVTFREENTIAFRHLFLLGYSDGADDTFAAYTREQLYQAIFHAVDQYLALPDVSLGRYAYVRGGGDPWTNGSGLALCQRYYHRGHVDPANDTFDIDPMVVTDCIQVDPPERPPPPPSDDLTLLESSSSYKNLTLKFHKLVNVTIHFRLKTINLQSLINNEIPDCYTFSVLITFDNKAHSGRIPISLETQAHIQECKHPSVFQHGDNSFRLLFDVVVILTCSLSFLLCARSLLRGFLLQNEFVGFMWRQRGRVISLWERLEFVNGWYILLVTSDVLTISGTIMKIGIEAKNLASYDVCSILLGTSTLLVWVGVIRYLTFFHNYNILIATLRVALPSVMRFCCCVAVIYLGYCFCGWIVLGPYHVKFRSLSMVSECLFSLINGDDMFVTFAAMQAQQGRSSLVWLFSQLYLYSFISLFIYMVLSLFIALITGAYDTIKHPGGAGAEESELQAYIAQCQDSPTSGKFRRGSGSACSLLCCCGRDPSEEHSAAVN
# Test details: Fluorescent TRPML1 assay (Fluo4-AM calcium fluorescence, HEK-293 Trex cells)
# Type: cell-based
# Stated conditions: Table 3, compounds 201-283
Listing: EC50 of selected compounds

Here are 5 compounds together with their reported answers.
compound="C[C@@H]1CN(c2ncnc3c2c(C2CCC2)cn3-c2cccc(C(F)(F)F)c2)[C@@H](C)CN1C(=O)C(C)(C)C(F)(F)F [Compound 263]" target_desc="human TRPML1 (Homo sapiens)" assay_endpoint=EC50 value_measured="100 to 500 nM"
compound="C[C@@H]1CN(c2ncnc3c2c(N2CCC2)cn3-c2cc(C#N)ccn2)CCN1C(=O)C1(F)CC1 [Compound 270]" target_desc="human TRPML1 (Homo sapiens)" assay_endpoint=EC50 value_measured="< 100 nM"
compound="C[C@@H]1CN(c2ncnc3c2c(C2CCC2)cn3-c2cc(F)cc(F)c2)[C@@H](C)CN1C(=O)C(C)(C)C(F)(F)F [Compound 259]" target_desc="human TRPML1 (Homo sapiens)" assay_endpoint=EC50 value_measured="100 to 500 nM"
compound="C[C@@H]1CN(c2ncnc3c2c(C2CCC2)cn3-c2cc(C#N)ccn2)[C@@H](C)CN1C(=O)C(C)(C)C [Compound 237]" target_desc="human TRPML1 (Homo sapiens)" assay_endpoint=EC50 value_measured="100 to 500 nM"
compound="CC(C)C(=O)N1CCN(c2ncnc3c(-c4cc(C#N)ccn4)cn(-c4ccccc4F)c23)[C@@H](C)C1 [Compound 212]" target_desc="human TRPML1 (Homo sapiens)" assay_endpoint=EC50 value_measured="100 to 500 nM"

q: For CCCC(=O)N1CCN(c2ncnc3c2c(N2CCC2)cn3-c2cc(C#N)ccn2)C[C@H]1C [Compound 274] , what is its reported EC50?
a: < 100 nM

q: For CC(C)C(=O)N1C[C@H](C)N(c2ncnc3c2c(C2CCC2)cn3-c2cc(C#N)ccn2)C[C@H]1C [Compound 238] , what is its reported EC50?
a: 100 to 500 nM

----------
# Target desc: human TRPML1 (Homo sapiens)
# Test details: Fluorescent TRPML1 assay (Fluo4-AM calcium fluorescence, HEK-293 Trex cells)
# Type: cell-based
# Stated conditions: Table 3, compounds 201-283
Listing: EC50 of selected compounds

Here are 6 compounds together with their reported answers.
compound=C[C@@H]1CN(c2ncnc3c2c(N2CCC2)cn3-c2cccc(Cl)c2)[C@@H](C)CN1C(=O)C(C)(C)C assay_endpoint=EC50 value_measured="< 100 nM"
compound=C[C@@H]1CN(c2ncnc3c2c(C2CCC2)cn3-c2cccc(Cl)c2)[C@@H](C)CN1C(=O)C(C)(C)C(F)(F)F assay_endpoint=EC50 value_measured="< 100 nM"
compound=C[C@@H]1CN(c2ncnc3c2c(C2CCC2)cn3-c2cc(C#N)ccn2)[C@@H](C)CN1C(=O)C(C)(C)C(F)(F)F assay_endpoint=EC50 value_measured="100 to 500 nM"
compound=COC1(C(=O)N2C[C@H](C)N(c3ncnc4c3c(-c3ccccc3F)cn4-c3cc(C#N)ccn3)C[C@H]2C)CC1 assay_endpoint=EC50 value_measured="< 100 nM"
compound=C[C@@H]1CN(c2ncnc3c2c(N2CCCC2)cn3-c2cccc(Cl)c2)CCN1C(=O)C1(F)CC1 assay_endpoint=EC50 value_measured="100 to 500 nM"
compound=C[C@@H]1CN(c2ncnc3c2c(C2CCC2)cn3-c2cc(C#N)ccn2)[C@@H](C)CN1C(=O)CC(C)(C)C(F)(F)F assay_endpoint=EC50 value_measured="< 100 nM"

q: For C[C@@H]1CN(c2ncnc3c2c(N2CCC2)cn3-c2cccc(F)c2)[C@@H](C)CN1C(=O)C(C)(C)C , what is its reported EC50?
a: < 100 nM

----------
# Target desc: TRPML2 (Homo sapiens, UniProt Q8IZK6)
# Construct: expressed in transfected cells
# Sequence (Q8IZK6 whole entry): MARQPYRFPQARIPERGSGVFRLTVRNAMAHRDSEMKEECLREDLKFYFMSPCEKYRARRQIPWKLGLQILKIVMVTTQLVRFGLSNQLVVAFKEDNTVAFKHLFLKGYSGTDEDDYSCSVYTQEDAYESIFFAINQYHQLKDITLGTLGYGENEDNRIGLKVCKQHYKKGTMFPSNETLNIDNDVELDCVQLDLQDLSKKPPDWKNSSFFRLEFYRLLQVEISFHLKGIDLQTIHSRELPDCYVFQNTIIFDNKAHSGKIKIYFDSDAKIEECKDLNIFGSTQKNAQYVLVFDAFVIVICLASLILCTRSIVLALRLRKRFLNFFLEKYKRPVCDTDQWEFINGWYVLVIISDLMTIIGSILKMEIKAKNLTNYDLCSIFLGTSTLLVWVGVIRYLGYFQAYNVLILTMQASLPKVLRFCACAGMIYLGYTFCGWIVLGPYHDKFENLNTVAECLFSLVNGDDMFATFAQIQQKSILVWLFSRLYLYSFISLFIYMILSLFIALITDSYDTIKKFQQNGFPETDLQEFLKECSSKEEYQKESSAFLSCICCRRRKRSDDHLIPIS
# Test details: Fluorescent TRPML2 assay (as for TRPML1)
# Format: cell-based
# Stated conditions: Table 3, compounds 201-283
pEC50: −log10 of the molar value.
Assay endpoint: pEC50

Here are 4 molecules together with their reported answers.
molecule="C[C@@H]1CN(c2ncnc3c2c(-c2ccccc2F)cn3-c2cc(C#N)ccn2)[C@@H](C)CN1C(=O)C1(F)CC1 [Compound 235]" target_desc="TRPML2 (Homo sapiens, UniProt Q8IZK6)" value_measured="6.30 to 7.00"
molecule="[2H]C([2H])([2H])C([2H])(C(=O)N1C[C@H](C)N(c2ncnc3c2c(-c2ccccc2F)cn3-c2cc(C#N)ccn2)C[C@H]1C)C([2H])([2H])[2H] (single isomer, unassigned) [Compound 233]" target_desc="TRPML2 (Homo sapiens, UniProt Q8IZK6)" value_measured="> 7.00"
molecule="COC1(C(=O)N2C[C@H](C)N(c3ncnc4c3c(-c3ccccc3F)cn4-c3cc(C#N)ccn3)C[C@H]2C)CC1 [Compound 267]" target_desc="TRPML2 (Homo sapiens, UniProt Q8IZK6)" value_measured="6.30 to 7.00"
molecule="COC(C)(C)C(=O)N1C[C@H](C)N(c2ncnc3c2c(-c2ccccc2)cn3-c2cc(C#N)ccn2)C[C@H]1C [Compound 282]" target_desc="TRPML2 (Homo sapiens, UniProt Q8IZK6)" value_measured="> 7.00"

q: For COC(C)(C)C(=O)N1C[C@H](C)N(c2ncnc3c2c(C2CC2)cn3-c2cccc(F)c2)C[C@H]1C [Compound 246] , what is its reported pEC50?
a: 5.70 to 6.30

q: For C[C@@H]1CN(c2ncnc3c2c(C2CCC2)cn3-c2cccc(F)c2)[C@@H](C)CN1C(=O)C(C)(C)C(F)(F)F [Compound 252] , what is its reported pEC50?
a: 5.70 to 6.30

q: For C[C@H]1CN(C(=O)C(C)(C)C)CCN1c1ncnc2c1c(C1CC1)cn2-c1cccc(F)c1 [Compound 215] , what is its reported pEC50?
a: 6.30 to 7.00

q: For C[C@@H]1CN(c2ncnc3c2c(C2CCC2)cn3-c2cccc(F)c2)[C@@H](C)CN1C(=O)CC(C)(C)C(F)(F)F [Compound 251] , what is its reported pEC50?
a: 5.70 to 6.30

q: For C[C@@H]1CN(c2ncnc3c2c(C(F)(F)F)cn3-c2cccc(Cl)c2)[C@@H](C)CN1C(=O)C(C)(C)C [Compound 204] , what is its reported pEC50?
a: 6.30 to 7.00

q: For C[C@@H]1CN(c2ncnc3c2c(N2CCCC2)cn3-c2cccc(Cl)c2)[C@@H](C)CN1C(=O)C1(F)CC1 [Compound 280] , what is its reported pEC50?
a: 5.70 to 6.30

q: For COC1(C(=O)N2C[C@H](C)N(c3ncnc4c3c(-c3ccccc3)cn4-c3cc(C#N)ccn3)C[C@H]2C)CC1 [Compound 283] , what is its reported pEC50?
a: 6.30 to 7.00

q: For [2H]C([2H])([2H])[C@@H]1CN(c2ncnc3c2c(-c2ccccc2F)cn3-c2cc(C#N)ccn2)[C@@H](C)CN1C(=O)C(C)C (single isomer, unassigned) [Compound 281] , what is its reported pEC50?
a: 5.70 to 6.30

q: For C[C@@H]1CN(c2ncnc3c2c(N2CCC2)cn3-c2cc(C#N)ccn2)[C@@H](C)CN1C(=O)C(C)(C)C [Compound 276] , what is its reported pEC50?
a: 6.30 to 7.00

q: For C[C@@H]1CN(c2ncnc3c2c(C2CCC2)cn3-c2cccc(C(F)(F)F)c2)[C@@H](C)CN1C(=O)C(C)(C)C(F)(F)F [Compound 263] , what is its reported pEC50?
a: 5.70 to 6.30

q: For C[C@@H]1CN(c2ncnc3c2c(C2CCC2)cn3-c2cc(F)cc(F)c2)[C@@H](C)CN1C(=O)C(C)(C)C [Compound 255] , what is its reported pEC50?
a: < 5.70
